- run.description: Mycobacterium tuberculosis growth inhibition, primary screen (AID 1259343)
- settings: at 10 µM, active compounds read high
The whole screen tested about 6,200 compounds, of which about 2,900 (47%) were called active. The set was probably picked from earlier hits. The list shows a part of the results.
Each record gets a class by inhibition: class A (below 20%), class B (20% to below 60%), class C (60% or more)

In: # bin label for "CCNC(=S)Nc1ccc(NC(=S)NCC)cc1"
Out: class C

In: # bin label for "Cc1ccc(S(=O)(=O)Nc2ccc(Cl)c(C#N)c2)cc1"
Out: class A

In: # bin label for Clc1ccc(C2CN(Cc3cc(-c4ccccn4)no3)CCO2)cc1Cl (configuration not stated)
Out: class B

In: # bin label for "CNC(=S)Nc1ccc(N2CCOCC2)cc1"
Out: class C

In: # bin label for "CSCCCNC(=S)Nc1ccc(N2CCOCC2)cc1"
Out: class B

In: # bin label for "O=C(CN(Cc1ccccc1)C(=O)c1ccc(Cl)c(Cl)c1)Nc1cc(-c2ccccc2)nn1-c1ccc(F)cc1"
Out: class A

In: # bin label for CN(CC(=O)Nc1ccccc1Br)C1CCc2ccccc21 (configuration not stated)
Out: class B

In: # bin label for "N#Cc1ccc(NC(=O)Nc2ccccc2Br)c2n[nH]nc12"
Out: class C

In: # bin label for "O=C(CCCCl)Nc1nc(-c2ccc(F)cc2)cs1"
Out: class A

In: # bin label for "CC(C)COC(=O)Nc1ccc2nc(N3CCOCC3)sc2c1"
Out: class B

In: # bin label for CC(=O)c1cc(CN2CCOC(CCCc3ccccc3)C2)cs1 (configuration not stated)
Out: class B

In: # bin label for "CNC(=S)Nc1ccc(Nc2ccccc2OC)cc1"
Out: class C

----------
For each record, write down the corresponding inhibition.
- run.description: Mycobacterium tuberculosis growth inhibition, primary screen (AID 1259343)
- settings: at 10 µM, active compounds read high
The whole screen tested about 6,200 compounds, of which about 2,900 (47%) were called active. So high a share suggests a set chosen from earlier hits. Some of the results follow.
Express the result in % but write the number alone.

// recorded inhibition for "Cc1nc2sc3c(c2c(=O)n1NC(=S)NC(=O)C12CC4CC(CC(C4)C1)C2)CCCC3" : 67.3

// recorded inhibition for O=C1c2ccccc2C(=O)N1CC1CC2C=CC1C2 (stereo not given) : 38.1

// recorded inhibition for CC(C)CC(N)c1csc(Nc2ccc(C(F)(F)F)cn2)n1 (stereo not given) : 91.8

// recorded inhibition for COc1ccc(C(N)c2csc(Nc3ccc(C(F)(F)F)cn3)n2)cc1 (stereo not given) : 86.2

// recorded inhibition for "O=c1c2ccccc2ncn1CCCCSc1ccccc1" : 89.1

// recorded inhibition for CC1Cc2ccccc2N1Sc1ccc([N+](=O)[O-])cc1 (stereo not given) : 58.6

// recorded inhibition for CC(NC(=O)c1ccc(Cl)c([N+](=O)[O-])c1)c1ccccc1 (stereo not given) : 100

// recorded inhibition for CC(NC(=O)c1scnc1Cl)c1ccccc1 (stereo not given) : 8.26

// recorded inhibition for "O=C(NNc1c(Cl)cc(Cl)cc1Cl)C1CCC1" : 47.8

// recorded inhibition for "O=c1cnnc(SCc2ccc(C(F)(F)F)cc2)[nH]1" : 84.2

// recorded inhibition for "CCc1cc(OCCCCn2cnc3ccccc3c2=O)ccc1Cl" : 64.6

// recorded inhibition for "CC(C)N(C(=O)/C=C/c1c(Cl)cccc1Cl)C(C)C" : 47.8

// recorded inhibition for Cc1csc(C(C#N)C(=O)CSc2nnc(NC3CC3)s2)n1 (stereo not given) : 28.8

// recorded inhibition for "O=C(CCc1nnc(CCCCc2ccccc2)o1)NCC[C@@H]1C[C@@H]2C=C[C@H]1C2" : 78.5

// recorded inhibition for "O=S(=O)(c1ccc(F)c(F)c1)N1CCN(c2ccc(O)cc2)CC1" : 56.7

// recorded inhibition for "COc1ccc(N=C(Nc2ccc(OC)cc2)SC)cc1" : 74.3

// recorded inhibition for "O=S(=O)(c1ccc(F)cc1)N1CCN(c2ccnc3cc(Cl)ccc23)CC1" : 3.02

// recorded inhibition for "CCOc1ccc(N=C(Nc2ccc(OCC)cc2)SC)cc1" : -1.39

// recorded inhibition for NC(Cc1ccc(C(F)(F)F)cc1)c1csc(Nc2ccccn2)n1 (stereo not given) : 47

// recorded inhibition for "CC(C)(C)c1ccc(OCc2ccc(C(=O)OCC#N)cc2)cc1" : -2.26

// recorded inhibition for "CCCSc1nnc(SCC(=O)Nc2nc(C)cs2)s1" : 90.9

// recorded inhibition for NC(Cc1ccccc1)c1csc(Nc2ccc(C(F)(F)F)cn2)n1 (stereo not given) : 86.1

// recorded inhibition for CC1Cc2ccccc2N1C(=O)C1CCN(c2ccc(C#N)cn2)CC1 (stereo not given) : -4.71

// recorded inhibition for "CCCSc1nnc(NCc2ccc(OC)cc2)s1" : 33.5

// recorded inhibition for "O=C(NC(=S)Nc1cc(Cl)c(Cl)cc1Cl)C1CC1" : 82.6

Data credit: PubChem BioAssay AID1259343
